Examples of molecules with documented growth inhibition follow.
Experiment: S. cerevisiae growth inhibition in restrictive medium, OD615, pilot screen, restrictive growth control, yeast lifespan reduction project (AID 706);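 also: modified DeaD lifespan yeast strain shifted to restrictive glucose medium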
Settings: OD615, 48 h, at 10 µM, stronger effect = higher value

- MOLECULE: "COc1cc(OC)c2c(c1)OC(c1ccc(OC)c(OC)c1)C(O)C2=O (stereo unspecified)"
  growth inhibition [%]: -14.9
- MOLECULE: "COC(=O)Cn1c(CN2CCc3ccccc3C2)nc2c1c(=O)n(C)c(=O)n2C"
  growth inhibition [%]: 0.56
- MOLECULE: "Cc1nc(CCNC(=O)COc2ccccc2)cs1"
  growth inhibition [%]: -3.25
- MOLECULE: "Cn1cccc1Cc1nnc(SCC(=O)Nc2nccs2)n1CCc1ccccc1"
  growth inhibition [%]: 62.6
- MOLECULE: "CCOC(=O)N1CCN(c2nc(C)cc(C(F)(F)F)n2)CC1"
  growth inhibition [%]: -23.3
- MOLECULE: "CC1(C)CC(=O)N(CC(=O)NCc2ccccc2)c2ccccc2S1(=O)=O"
  growth inhibition [%]: 6.21
- MOLECULE: "O=C(CSC1=NCCS1)NCc1ccco1"
  growth inhibition [%]: 47.7
- MOLECULE: "COC(=O)Cn1c(CN2CCN(c3ccccc3F)CC2)nc2c1c(=O)n(C)c(=O)n2C"
  growth inhibition [%]: -1.94
- MOLECULE: "O=C(CSc1ccc2nnc(-c3ccccc3)n2n1)N1CCN(c2ccccc2)CC1"
  growth inhibition [%]: 8.33
- MOLECULE: "Cc1ccccc1-n1c(Cn2c(=O)sc3ccccc32)nnc1SCC(=O)N1CCCC1"
  growth inhibition [%]: 6.39
- MOLECULE: "CCc1nc2sc(C)c(C)c2c(=O)n1CCO"
  growth inhibition [%]: 0.805

* * *

Experiment: viability of PTEN-null HCT116 cells – cell-based, HCT116 clonal line, CellTiter-Glo, pilot screen (AID 824);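 also: 0% = 20 µM Hyamine control and 100% = vehicle cell control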
Conditions: HCT116 PTEN-deleted viability, 60 h, at 10 µM, stronger effect = lower value
Records with an inconclusive call do not appear.
Property: viability; scope: individual compounds

- COMPOUND: "CC(O)CSc1nc2c(c(=O)n(C)c(=O)n2C)n1CCCc1ccccc1 (stereo unspecified)"
  viability, %: 96
- COMPOUND: "Cc1ccc(C(=O)Nc2ccc3c(c2)CCC3)o1"
  viability, %: 69.8
- COMPOUND: "O=C1C2C3C=CC(C3)C2C(=O)N1c1cccc(N2C(=O)C3C4C=CC(C4)C3C2=O)n1 (stereo unspecified)"
  viability, %: 104
- COMPOUND: "CC1CCN(C(=O)CSc2nnc(-c3ccco3)o2)CC1"
  viability, %: 102
- COMPOUND: "CCOc1ccc2nc(Nc3nc4c(c(=O)[nH]3)CCC4)nc(C)c2c1"
  viability, %: 96.4
- COMPOUND: "Cc1ccccc1OCc1nnc2n1CC(C)S2 (stereo unspecified)"
  viability, %: 95.3
- COMPOUND: "Cc1ccc(C)n1-n1c(C)nc2sc(-c3ccccc3)cc2c1=O"
  viability, %: 61
- COMPOUND: "C=CCc1ccccc1OCCCCN1CCCC1"
  viability, %: 80.8
- COMPOUND: "O=C(Cn1cnc2c(nnn2Cc2ccc(Cl)cc2)c1=O)N1CCN(c2ccccc2)CC1"
  viability, %: 80.5
- COMPOUND: "Cc1cccc(OCCNC(=O)c2ncn[nH]2)c1"
  viability, %: 99.7
- COMPOUND: "COc1ccc(-n2c(Cc3cccn3C)nnc2SCC(=O)Nc2cccc(Cl)c2)cc1"
  viability, %: 62.4
